METHOD_DESCRIPTION: yeast display, Sf9 membrane polyspecificity reagent, FACS + sequencing; frameworks hold sequencing errors
OUTCOME_MEASURE: polyreactivity (PSR sort gate)

# annotated cases, reported polyreactivity (PSR sort gate) shown
**Q:** Any idea what polyreactivity (PSR sort gate) was measured for "QVQLGESGGALVQAGGSLRLSCAASGFTFKYYAMGWYRQAPGKERELVAAISRGGSTYYADSVKGRFTISRDNAKNTVYLQMNILKPEDTAVYYCAARYVRVGYDYWGQGTQVTVSS" ?
**A:** high polyreactivity

**Q:** Any idea what polyreactivity (PSR sort gate) was measured for "QVQLVESAGGLVQAGGSLSLSCAATGFIFYYNTMGWYRQAPGKERELVAAINSGGSTYYADSVKGRFTISRDNAKNTVYLQMNSLKPEDTAVYYCAKRYAVSSRYYYWGQGTQVTVSS" ?
**A:** high polyreactivity

**Q:** Any idea what polyreactivity (PSR sort gate) was measured for "QVQLVESGGGLVQAGGSLRLSCAASGRISRGYAMGWYRQAPGKERELVAAIDSDGDTNYADSVKGRFTISRDNAKNTVYLQMNRLKAEDTAVYYCNKDGAYKTAYKRWTLYDYWGQGTQVTVSS" ?
**A:** low polyreactivity

**Q:** Any idea what polyreactivity (PSR sort gate) was measured for "QVQLVESGGGLVHAGGRLRLSCAASGSTFSPYAMGWYRQPPGKERELVAAITRSGGRTYYADSVKGRFTISRDNAKNTVYLQMNSLKPEDTAVYYCAARNYKPYGYYRIYDSWGQGTQVTVSS" ?
**A:** high polyreactivity

**Q:** Any idea what polyreactivity (PSR sort gate) was measured for "QVQLVESAGGLVQAGGSLRLSCAASGRIFARYAMGWYRQAPGKVRELVAAISASGGSTYYADSVKGRFTISRDNAKYTVYLQMNSLKPEDTAVYYCAARFSYPYRIAFNYWGQGTQVTVSS" ?
**A:** low polyreactivity

**Q:** Any idea what polyreactivity (PSR sort gate) was measured for "QVQLVESGGGLVQAGGSLRLSCAASGFIFTKYTMGWYRQAPGKERELVAAIRSDGVRTYYADSVKGRFTISRDNAKNTVYLQMNSLKPEDTAVYYCNRVSAVRIGAGDYWGQGTQVTVSS" ?
**A:** high polyreactivity

# batch: return polyreactivity (PSR sort gate) for each of the 2 sequences below
1. QVQLVESGGGLVQAGGSLRLSCAASGLIFVGYAMGWYRQAPGKERELVAAITSGGSTKYADSVKGRFTISRDNAKNTVYLQMNSLKAEDTAVYYCAASGWRNWWSARNYYWGQGTQVTVSS
2. QFQLVESGGGLVQAGGSLRLSCAASGSTFKYSAMGWYRQAPGKERELVAIIRSGGRTNYADSVKGRFTISRDNAKNTVYLQMNSLKPEDTAVYYCNARYGRYYGAYEYWGQGTQVTVSS

**A:**
low polyreactivity
high polyreactivity

# batch: return polyreactivity (PSR sort gate) for each of the 3 sequences below
1. QVQLVESGGGLVQAGGSLRLSCASSGSTFNRYAMVWYRQAPGKERELVAAISGSGSSTYYADSVKGRFTISRDNAKNTVYLQMNSLKPEDNAVYYCAAVRYHKFREYNSWGQGTQVTVSS
2. QVQLVESGGGLVQAGGSLRLSCAASGSIFSINTMGWYRQAPGKERELVAAITRSGSGTYYADSVKGRFTISRDNAKNTVYLQMNSLKPEDTAVYYCAKSTAVKPYAYRESGFIYDYWGQGTQVTVSS
3. QVQLVESGGGLVQAGGSLRLSCAASGFIIVRNALGWYRQAPGKERELVAAMRWSGGSTYYADSEKGRFTISRDNSKNTDYLQMNSLKPEDTAVYYCAARLWLKVQYLRFFVYDYWGQGTQVTVSS

**A:**
["high polyreactivity", "low polyreactivity", "low polyreactivity"]

# batch: return polyreactivity (PSR sort gate) for each of the 2 sequences below
1. QVQLVESGGGLVQAGGSLRLSCAASGRTFWTYTMGWYRQAPGKEREFVAAITFGDGSTSYADSVKGRFTISRDNAKNTVYLQMNSLKPEDTAVYSCAKRWRRRFVDVWSLYDYWGQGTQVTVSS
2. QVQLVESGGGLVQAGGSLRLSCAASGSIFPRNAMGWYRQAPGKERELVAAIRKSGGSTYYADSVKGRFTISRDNAKNTVYLQMNSLKPEDTAVYYCAKTYSVSSWQSPIYNYWGQGTQVTVSS

**A:**
1. low polyreactivity
2. low polyreactivity

# batch: return polyreactivity (PSR sort gate) for each of the 3 sequences below
1. QVQLVESGGGLVQAGGSLRLSCAASGGTFPPNTMGWSRQAPGKEREFVAASTWRGSSTYYADSVKGRFTISRDKAKNTVYLQMNSLKPEDTAVYYCAARRAYERMGYWGQGTQVTVSS
2. QVHLVESGGGKVQAGGRLRLSCAASGSTFFRYAMGWYRQAPGKERELVAAISWSGGTTYYADSVKGRFPISRDIAKNTVYLQMNSLKPEDTAVYYCNAVRQGHILDYWGQGTQVTVSS
3. QVQLVESGGGLVKAGGSLRLSCAASGSIGSYAMGCYRQAPGKERELVAAISSRGGSTYYADSVKGRFTISRDNAKNTVYLQMNSLKPEDTAFYYCAADYRGRYYSKYYYWGQGTQVTVSS

**A:**
1: high polyreactivity; 2: low polyreactivity; 3: high polyreactivity

# batch: return polyreactivity (PSR sort gate) for each of the 4 sequences below
1. QVQLVESGGGLVQAGGSLRLSCAASGSILESNVMGWYRQAPGKERELVASISSSGDSTYADSVKGRFTISRDNAKNTVYLQMNSLKPEDTEVYYCAADRWYWTYALYYWGQGTQVTVSS
2. QVQLVESGGGLVQAGGSLRLSCAASGLIFGPNAMGWYRQAPGKERELVAAITKSGDSTYYADSVKGRFTISRDNAKNTVYFQMNSLKPEDTAVYYCAADTTTGLYDYWGQGTQVTVSS
3. QVQLVESGGGLVQAGGSLRLSCAASGFTFAYNAMGWYRQAPGKERELVAAISGRGVSTYYADSVKGRFTISRDNAKNTVYLQMNSLKPEDTAVYYCAKRYRYWTTERYDYWGQGTQVTVSS
4. QVHLVESGGGLVQAGGSLRLSCAASGSTFSIYAMGWYRQAPGKERELVAAINSGGDTNYADSVKGRFTISRDNAKNTVYLQMNSLKPEDTAVYYCAKQVYTSRRSRGRYGFGYWGQGTQVTVSS

**A:**
low polyreactivity
low polyreactivity
high polyreactivity
high polyreactivity

**Q:** Any idea what polyreactivity (PSR sort gate) was measured for "QVQLVESGGGLVQAGGSLRLSCAASGLIFNWNDMGWYRQAPGKERELVAAISGDGGITYYADSVKGRFTISRDNAKNTVFLQMNSLKPEDTAVYYCNAGFTWGDWYDYWGQGTQVTVSS" ?
**A:** low polyreactivity

From: the nanobody polyreactivity screen of Harvey et al. (2022)
